Sourced from ChEMBL document CHEMBL3991601

Exercise: for every item that follows, state its recorded Kd.
# test_system: Wee1-like protein kinase (Homo sapiens, UniProt P30291); also: in the data inactive means no Kd found up to 30 µM
# Sequence (P30291 whole entry): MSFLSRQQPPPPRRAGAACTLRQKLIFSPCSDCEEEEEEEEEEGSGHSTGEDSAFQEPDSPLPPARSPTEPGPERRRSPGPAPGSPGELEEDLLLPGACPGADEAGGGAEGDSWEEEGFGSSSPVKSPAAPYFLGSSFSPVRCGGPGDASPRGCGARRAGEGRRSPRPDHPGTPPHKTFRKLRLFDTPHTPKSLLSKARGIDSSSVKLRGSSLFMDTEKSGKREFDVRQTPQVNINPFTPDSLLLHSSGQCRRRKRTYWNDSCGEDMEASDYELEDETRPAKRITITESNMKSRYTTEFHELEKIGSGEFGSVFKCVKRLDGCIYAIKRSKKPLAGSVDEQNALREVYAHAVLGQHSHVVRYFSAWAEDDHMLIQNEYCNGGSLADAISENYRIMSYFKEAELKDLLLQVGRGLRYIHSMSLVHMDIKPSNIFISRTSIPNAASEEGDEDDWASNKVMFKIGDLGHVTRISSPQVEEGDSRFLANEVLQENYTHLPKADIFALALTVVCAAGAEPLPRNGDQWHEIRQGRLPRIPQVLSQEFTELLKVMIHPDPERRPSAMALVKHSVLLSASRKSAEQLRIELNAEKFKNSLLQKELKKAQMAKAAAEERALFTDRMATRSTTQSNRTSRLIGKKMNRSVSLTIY
The source made the active and inactive calls.

Below, 2 compounds whose answers are already recorded.
>  <chemical_smiles>
CN(c1ncccc1CNc1nc(Nc2ccc3c(c2)CC(=O)N3)ncc1C(F)(F)F)S(C)(=O)=O

>  <readout_kind>
Kd

>  <value_measured>
> 30 µM (inactive)

$$$$
>  <chemical_smiles>
CCc1nc(C(N)=O)c(Nc2ccc(N3CCC(N4CCN(C)CC4)CC3)c(OC)c2)nc1NC1CCOCC1

>  <readout_kind>
Kd

>  <value_measured>
> 30 µM (inactive)

$$$$

Lab note: each compound below needs its Kd filled in.
1. O[C@H]1CC[C@H](Nc2ncc3nc(Nc4c(F)cc(F)cc4F)n([C@H]4CCOC4)c3n2)CC1
2. c1cc(OCCN2CCCCC2)cc(-c2n[nH]c3ccc(-c4nc[nH]n4)cc23)c1
3. COc1cccc2cc(-c3nc([C@H]4CC[C@H](C(=O)O)CC4)n4ncnc(N)c34)[nH]c12
4. C[C@@H]1COC(Nc2ccc3ncnc(Nc4ccc(OCc5nccs5)c(Cl)c4)c3c2)=N1
5. CC(C)CC(=O)Nc1[nH]nc2c1CN(C(=O)C1CCN(C)CC1)C2(C)C
6. Cc1cc(-c2cc(OC(=O)c3ccccc3)ccc2Cl)cc2nnc(Nc3ccc(OCCN4CCCC4)cc3)nc12

1: > 30 µM (inactive); 2: > 30 µM (inactive); 3: > 30 µM (inactive); 4: > 30 µM (inactive); 5: > 30 µM (inactive); 6: > 30 µM (inactive)

###

# test_system: Mitogen-activated protein kinase kinase kinase 6 (Homo sapiens, UniProt O95382); also: in the data inactive means no Kd found up to 30 µM
# Sequence (O95382 whole entry): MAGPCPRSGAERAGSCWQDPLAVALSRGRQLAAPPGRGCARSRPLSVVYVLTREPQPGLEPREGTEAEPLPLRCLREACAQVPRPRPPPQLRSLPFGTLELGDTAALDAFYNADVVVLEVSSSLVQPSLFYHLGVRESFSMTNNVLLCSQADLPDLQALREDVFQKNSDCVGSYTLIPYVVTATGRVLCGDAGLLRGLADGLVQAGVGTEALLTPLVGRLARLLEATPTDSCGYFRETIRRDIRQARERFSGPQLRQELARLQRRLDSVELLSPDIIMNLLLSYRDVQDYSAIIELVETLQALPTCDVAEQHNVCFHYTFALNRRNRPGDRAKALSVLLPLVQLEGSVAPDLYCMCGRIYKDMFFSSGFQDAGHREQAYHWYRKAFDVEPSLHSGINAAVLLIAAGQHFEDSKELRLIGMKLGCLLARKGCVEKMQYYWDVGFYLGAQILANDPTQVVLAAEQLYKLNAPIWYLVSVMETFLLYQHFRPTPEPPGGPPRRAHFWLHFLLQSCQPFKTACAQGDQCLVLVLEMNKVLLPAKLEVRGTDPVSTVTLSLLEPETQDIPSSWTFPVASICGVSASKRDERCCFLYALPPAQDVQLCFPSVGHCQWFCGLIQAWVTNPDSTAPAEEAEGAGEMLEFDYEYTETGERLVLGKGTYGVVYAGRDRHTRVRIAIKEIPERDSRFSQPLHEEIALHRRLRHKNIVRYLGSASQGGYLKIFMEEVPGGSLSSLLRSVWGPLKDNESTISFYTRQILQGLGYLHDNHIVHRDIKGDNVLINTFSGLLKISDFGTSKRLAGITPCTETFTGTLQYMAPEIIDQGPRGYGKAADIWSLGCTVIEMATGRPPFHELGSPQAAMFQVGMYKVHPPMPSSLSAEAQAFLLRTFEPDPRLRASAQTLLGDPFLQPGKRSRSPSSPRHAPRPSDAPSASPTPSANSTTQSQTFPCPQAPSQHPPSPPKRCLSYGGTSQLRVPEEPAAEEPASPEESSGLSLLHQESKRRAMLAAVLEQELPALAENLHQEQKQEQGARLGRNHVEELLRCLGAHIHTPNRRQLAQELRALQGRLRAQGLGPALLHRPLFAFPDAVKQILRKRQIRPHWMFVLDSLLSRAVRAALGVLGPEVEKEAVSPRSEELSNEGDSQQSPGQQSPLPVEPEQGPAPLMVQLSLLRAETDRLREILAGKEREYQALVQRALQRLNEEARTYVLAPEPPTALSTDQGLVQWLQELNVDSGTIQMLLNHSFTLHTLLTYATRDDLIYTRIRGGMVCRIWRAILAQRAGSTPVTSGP
The source made the active and inactive calls.
readout_kind: Kd

Below, 8 compounds whose answers are already recorded.
>  <compound>
COc1cc2ncnc3c2cc1OCCCCCN(C)Cc1ccc(Br)cc1N3

>  <Kd>
> 30 µM (inactive)

$$$$
>  <compound>
COc1cc(Nc2ncc(F)c(Nc3ccc4c(n3)N(COP(=O)(O)O)C(=O)C(C)(C)O4)n2)cc(OC)c1OC

>  <Kd>
> 30 µM (inactive)

$$$$
>  <compound>
Cn1c(=O)n(-c2ccc(C(C)(C)C#N)cc2)c2c3cc(-c4cnc5ccccc5c4)ccc3ncc21

>  <Kd>
> 30 µM (inactive)

$$$$
>  <compound>
COc1cc2ncnc(Nc3ccc(O)cc3)c2cc1OC

>  <Kd>
> 30 µM (inactive)

$$$$
>  <compound>
CNC(=O)c1ccc(Nc2ncc(C(F)(F)F)c(NCc3nccnc3N(C)S(C)(=O)=O)n2)cc1

>  <Kd>
> 30 µM (inactive)

$$$$
>  <compound>
Cc1c(Cn2c(C)nc3c(C(=O)O)cc(N4CCOCC4)cc32)cccc1C(F)(F)F

>  <Kd>
> 30 µM (inactive)

$$$$
>  <compound>
FC(F)(F)c1ccc(CNc2ccc(Cc3c[nH]c4ncc(Cl)cc34)cn2)cn1

>  <Kd>
> 30 µM (inactive)

$$$$
>  <compound>
Cc1c(NC(=O)OC[C@@H]2COCCN2)cn2ncnc(Nc3ccc4c(cnn4Cc4cccc(F)c4)c3)c12

>  <Kd>
> 30 µM (inactive)

$$$$

Please give Kd, item by item, for the list that follows.
1. CCN1CCN(Cc2ccc(Nc3ncc(F)c(-c4cc(F)c5nc(C)n(C(C)C)c5c4)n3)nc2)CC1
2. CCN(CCCOc1ccc2c(Nc3cc(CC(=O)Nc4cccc(F)c4)n[nH]3)ncnc2c1)CCOP(=O)(O)O
3. COc1ccc(-c2ccc3ncc4c(c3c2)n(-c2ccc(N3CCNCC3)c(C(F)(F)F)c2)c(=O)n4C)cn1 [BGT-226 FREE BASE]

> 30 µM (inactive)
> 30 µM (inactive)
> 30 µM (inactive)

// each listed compound needs a value for Kd
1. CC(C)CC(=O)Nc1[nH]nc2c1CN(C(=O)C1CCN(C)CC1)C2(C)C
2. CC(C)(O)CC(=O)NCCn1ccc2ncnc(Nc3ccc(Oc4cccc(C(F)(F)F)c4)c(Cl)c3)c21
3. CC[C@@](C)(Nc1ccnc(-c2c[nH]c3ncccc23)n1)C(=O)NCC(F)(F)F
4. O[C@H]1CC[C@H](Nc2ncc3nc(Nc4c(F)cc(F)cc4F)n([C@H]4CCOC4)c3n2)CC1
5. COc1cc2nccc(Oc3ccc(NC(=O)C4(C(=O)Nc5ccc(F)cc5)CC4)cc3)c2cc1OC [CABOZANTINIB]

1. > 30 µM (inactive)
2. > 30 µM (inactive)
3. > 30 µM (inactive)
4. > 30 µM (inactive)
5. > 30 µM (inactive)

###

# test_system: Phosphorylase b kinase gamma catalytic chain, liver/testis isoform (Homo sapiens, UniProt P15735); also: in the data inactive means no Kd found up to 30 µM
# Sequence (P15735 whole entry, canonical isoform): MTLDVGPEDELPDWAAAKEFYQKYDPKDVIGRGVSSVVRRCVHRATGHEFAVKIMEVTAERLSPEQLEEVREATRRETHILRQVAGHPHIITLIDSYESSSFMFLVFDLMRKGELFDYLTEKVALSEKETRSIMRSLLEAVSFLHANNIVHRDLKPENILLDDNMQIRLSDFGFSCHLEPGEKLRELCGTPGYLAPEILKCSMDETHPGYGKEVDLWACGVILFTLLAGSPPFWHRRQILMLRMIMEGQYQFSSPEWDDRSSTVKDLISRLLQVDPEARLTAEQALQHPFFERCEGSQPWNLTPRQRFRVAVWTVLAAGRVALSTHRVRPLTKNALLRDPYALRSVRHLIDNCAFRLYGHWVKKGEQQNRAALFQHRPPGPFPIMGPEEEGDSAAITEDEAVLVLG
Activity calls are given as the source filed them.
Write down the outcome that applies. Available outcomes: active, inactive

>  <compound>
Cn1c(=O)c(F)c(Nc2ccc(I)cc2F)c2c(=O)n(C[C@@H](O)CO)cnc21 [TAK-733]

>  <group>
inactive

$$$$
>  <compound>
COc1cc(F)c(F)c(Nc2ccc(I)cc2F)c1NS(=O)(=O)C1(C[C@H](O)CO)CC1 [REFAMETINIB]

>  <group>
inactive

$$$$
>  <compound>
O=C(NOC[C@H](O)CO)c1ccc(F)c(F)c1Nc1ccc(I)cc1F [MIRDAMETINIB]

>  <group>
inactive

$$$$
>  <compound>
CC1(COc2ccc3c(c2)ncn3-c2ccc3cccc(N4CCC(N)CC4)c3n2)COC1 [CRENOLANIB]

>  <group>
active

$$$$
>  <compound>
COc1cccc2cc(-c3nc([C@H]4CC[C@H](C(=O)O)CC4)n4ncnc(N)c34)[nH]c12 [OSI-027]

>  <group>
inactive

$$$$

Could you please tell me the result logged for COc1ccc2c(OCc3nnc4ccc(-c5ccccc5)nn34)ccnc2c1 [AMG-208] in this assay?
inactive

Here is the next compound: c1cc(OCCN2CCCCC2)cc(-c2n[nH]c3ccc(-c4nc[nH]n4)cc23)c1 [CC-401]
inactive

Next record, please: NC[C@@](O)(c1ccc(Cl)cc1)c1ccc(-c2cn[nH]c2)cc1 [AT-13148]
inactive

###

# test_system: Protein kinase C alpha type (Homo sapiens); also: in the data inactive means no Kd found up to 30 µM
Active and inactive are the calls of the source.
Outcomes you can answer with include only these: TRUE (active), FALSE (inactive)

Recorded results for 5 compounds are shown here.
>  <compound>
COc1cc(Nc2ncc(F)c(Nc3ccc4c(n3)N(COP(=O)(O)O)C(=O)C(C)(C)O4)n2)cc(OC)c1OC [FOSTAMATINIB]

>  <test_system>
Protein kinase C alpha type (Homo sapiens); also: in the data inactive means no Kd found up to 30 µM

>  <group>
FALSE

$$$$
>  <compound>
CCc1cc2c(cc1N1CCC(N3CCOCC3)CC1)C(C)(C)c1[nH]c3cc(C#N)ccc3c1C2=O [ALECTINIB]

>  <test_system>
Protein kinase C alpha type (Homo sapiens); also: in the data inactive means no Kd found up to 30 µM

>  <group>
FALSE

$$$$
>  <compound>
COc1ccc(-c2ccc3ncc4c(c3c2)n(-c2ccc(N3CCNCC3)c(C(F)(F)F)c2)c(=O)n4C)cn1 [BGT-226 FREE BASE]

>  <test_system>
Protein kinase C alpha type (Homo sapiens); also: in the data inactive means no Kd found up to 30 µM

>  <group>
FALSE

$$$$
>  <compound>
C=CCn1c(=O)c2cnc(Nc3ccc(N4CCN(C)CC4)cc3)nc2n1-c1cccc(C(C)(C)O)n1 [ADAVOSERTIB]

>  <test_system>
Protein kinase C alpha type (Homo sapiens); also: in the data inactive means no Kd found up to 30 µM

>  <group>
FALSE

$$$$
>  <compound>
COc1cccc2cc(-c3nc([C@H]4CC[C@H](C(=O)O)CC4)n4ncnc(N)c34)[nH]c12 [OSI-027]

>  <test_system>
Protein kinase C alpha type (Homo sapiens); also: in the data inactive means no Kd found up to 30 µM

>  <group>
FALSE

$$$$

Dear colleague, could you share the recorded outcome for CNC(=O)c1ccc(Nc2ncc(C(F)(F)F)c(NCc3nccnc3N(C)S(C)(=O)=O)n2)cc1 [DEFACTINIB] when you have a moment?
FALSE
